# TARGET DESC: hT1R2/T1R3 taste receptor (Homo sapiens, UniProt Q7RTX0+Q8TE23)
# Sequence (Q8TE23 20-839): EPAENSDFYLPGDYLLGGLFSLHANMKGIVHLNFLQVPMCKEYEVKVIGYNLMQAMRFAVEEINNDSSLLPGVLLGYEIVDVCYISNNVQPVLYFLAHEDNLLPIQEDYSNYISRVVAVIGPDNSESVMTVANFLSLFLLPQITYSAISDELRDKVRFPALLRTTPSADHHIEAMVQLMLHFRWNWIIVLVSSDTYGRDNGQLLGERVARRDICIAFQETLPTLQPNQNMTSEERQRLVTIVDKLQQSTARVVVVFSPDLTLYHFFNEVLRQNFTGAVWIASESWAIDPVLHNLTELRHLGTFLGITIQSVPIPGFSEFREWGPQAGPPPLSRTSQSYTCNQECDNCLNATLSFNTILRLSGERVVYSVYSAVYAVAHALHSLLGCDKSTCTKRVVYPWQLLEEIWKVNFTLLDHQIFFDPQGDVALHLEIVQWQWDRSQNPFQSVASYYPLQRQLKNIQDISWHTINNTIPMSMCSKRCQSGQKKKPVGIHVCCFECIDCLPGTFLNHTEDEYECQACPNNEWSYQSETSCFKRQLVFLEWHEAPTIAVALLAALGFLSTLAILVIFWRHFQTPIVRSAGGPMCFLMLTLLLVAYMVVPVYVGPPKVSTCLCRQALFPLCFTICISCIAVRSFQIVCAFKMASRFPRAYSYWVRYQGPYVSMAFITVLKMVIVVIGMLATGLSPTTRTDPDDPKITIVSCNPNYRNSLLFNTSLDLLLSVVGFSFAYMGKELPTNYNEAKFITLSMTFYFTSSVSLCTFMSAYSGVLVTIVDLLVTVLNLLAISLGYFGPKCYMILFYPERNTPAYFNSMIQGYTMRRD
# Sequence (Q7RTX0 21-852): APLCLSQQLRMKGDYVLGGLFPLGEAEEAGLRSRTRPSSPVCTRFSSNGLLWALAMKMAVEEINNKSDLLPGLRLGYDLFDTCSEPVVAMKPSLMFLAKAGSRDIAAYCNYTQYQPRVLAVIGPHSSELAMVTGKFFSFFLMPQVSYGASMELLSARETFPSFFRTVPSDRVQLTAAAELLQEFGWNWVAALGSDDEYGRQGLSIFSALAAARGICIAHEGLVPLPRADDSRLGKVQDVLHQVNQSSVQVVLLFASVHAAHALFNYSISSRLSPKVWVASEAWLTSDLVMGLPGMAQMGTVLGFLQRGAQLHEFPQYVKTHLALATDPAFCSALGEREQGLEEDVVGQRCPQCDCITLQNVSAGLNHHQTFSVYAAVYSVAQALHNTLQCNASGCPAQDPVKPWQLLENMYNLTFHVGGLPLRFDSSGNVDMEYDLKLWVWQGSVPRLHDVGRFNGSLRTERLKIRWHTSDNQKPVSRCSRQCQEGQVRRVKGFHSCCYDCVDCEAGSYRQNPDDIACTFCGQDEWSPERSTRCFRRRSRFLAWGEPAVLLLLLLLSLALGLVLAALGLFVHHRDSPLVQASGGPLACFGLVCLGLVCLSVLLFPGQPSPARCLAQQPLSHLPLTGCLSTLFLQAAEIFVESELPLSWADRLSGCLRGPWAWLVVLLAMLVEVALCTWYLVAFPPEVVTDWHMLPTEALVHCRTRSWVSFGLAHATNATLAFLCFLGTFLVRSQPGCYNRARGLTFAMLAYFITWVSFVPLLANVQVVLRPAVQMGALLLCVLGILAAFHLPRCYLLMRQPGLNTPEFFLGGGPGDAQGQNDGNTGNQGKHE
# METHOD: agonist activity against the hT1R2/T1R3 taste receptor (sweet receptor based assay)
# Assay type: cell-based
# PROTOCOL CONDITIONS: agonist activity, hT1R2/T1R3; read-out: Sweet EC50
Assignment: determine reported pEC50 for the given compounds.
Answers are plain numbers, as −log10 of the molar value.

Cc1ccccc1C1CCN(C(C)(C)C(=O)NCC(C)C)CC1 : 5.80
CC(C)(C(=O)NC1CCCC1)N1CCC(c2ccccc2)CC1 : 5.60
CC(C)CNC(=O)C(C)(C)N1CCC(c2cccc(F)c2F)CC1 : 6.85
Cc1cccc(N2CCN(C(C)(C)C(=O)NC3CCCCC3)CC2)c1C : 5.03

List pEC50 for every entry below, keeping the order given.
1. CC(C)CNC(=O)C(C)(C)N1CCC2(CC1)OCc1ccccc12
2. CC(C)CNC(=O)CN1CCC(c2ccccc2)CC1
3. CC(C)CNC(=O)C(C)(C)N1CCC(C)(c2ccccc2)CC1
4. Cc1cccc(N2CCN(C(C)C(=O)NCC(C)C)CC2)c1C (stereo not shown) [Compound 29]
5. Cc1cccc(C2=CCN(C(C)(C)C(=O)NCC(C)C)CC2)c1F
6. COCc1c(F)cccc1N1CCN(C(C)(C)C(=O)NCC(C)C)CC1

Completion:
5.25
5.17
5.43
5.85
5.54
5.68

List pEC50 for every entry below, keeping the order given.
1. Cc1cccc(N2CCN(C(C)(C)C(=O)NCC3CCCC3)CC2)c1C
2. CC(C)CNC(=O)C(C)(C)N1CC=C(c2ccccc2F)CC1

Completion:
[5.16, 5.80]

List pEC50 for every entry below, keeping the order given.
1. COCc1cccc(C2=CCN(C(C)(C)C(=O)NCC(C)C)CC2)c1F
2. CC(C)[C@@H](C)NC(=O)C(C)(C)N1CCC(c2ccccc2)CC1

Completion:
5.92
5.36
